- Condition description: human gut metagenome, 24 h, 2 µM; note: call rule not given here
Property label: Bacterial Biotransformation

* COc1ccc(Cc2nccc3cc(OC)c(OC)cc23)cc1OC [PAPAVERINE] | Compound metabolized
* COCCCC/C(=N\OCCN)c1ccc(C(F)(F)F)cc1.O=C(O)/C=C\C(=O)O [FLUVOXAMINE MALEATE] | Compound NOT metabolized
* CC(C)(C)NCC(O)c1cc(Cl)c(N)c(Cl)c1 (configuration not stated) [CLENBUTEROL] | Compound NOT metabolized
* CN1[C@@H]2CC[C@H]1C[C@@H](OC(=O)[C@H](CO)c1ccccc1)C2 [HYOSCYAMINE] | Compound NOT metabolized
* CCc1cccc2c3c([nH]c12)C(CC)(CC(=O)O)OCC3 (configuration not stated) [ETODOLAC] | Compound metabolized

Lab note: measured Bacterial Biotransformation of CCN(CC)CCNC(=O)c1ccc(NC(C)=O)cc1 [ACECAINIDE] was Compound NOT metabolized

Summary for this compound, CCCCC(=O)O[C@]1(C(=O)CO)[C@@H](C)C[C@H]2[C@@H]3CCC4=CC(=O)C=C[C@]4(C)[C@@]3(F)[C@@H](O)C[C@@]21C [BETAMETHASONE VALERATE] : Bacterial Biotransformation is Compound metabolized
